The measurements presented in this section are drawn from ChEMBL document CHEMBL1148331.

# System: EMT6
# Measurement protocol: Ratio of growth inhibition of NTR-transfected mouse mammary cell line to that of parental cell line (IC50 (NTR-)/IC50 (NTR+)
# Assay type: functional
Some compounds, each annotated with its measured Ratio.
I'd appreciate a reply containing only the number, no unit.

Provide only the value of recorded Ratio for O=C(NCCCCN1CCOCC1)c1cc(N2CC2)c([N+](=O)[O-])cc1[N+](=O)[O-]
12170

----------
# Tested on: EMT6
# Measurement protocol: Ratio of growth inhibition of NTR-transfected mouse mammary cell line to that of parental cell line (IC50 (NTR-)/IC50 (NTR+)
# Type: functional
Some compounds, each annotated with its measured Ratio.
I'd appreciate a reply containing only the number, no unit.

Consider the following illustrative entries.
NC(=O)c1c([N+](=O)[O-])ccc(N2CC2)c1[N+](=O)[O-] = 9.2
O=C(NCCn1ccnc1)c1cc(N2CC2)c([N+](=O)[O-])cc1[N+](=O)[O-] = 278
NC(=O)c1cc(N2CC2)c([N+](=O)[O-])cc1[N+](=O)[O-] = 947
CS(=O)(=O)c1cc([N+](=O)[O-])c(N2CC2)cc1C(N)=O = 125

Provide only the value of recorded Ratio for O=C(NCC(O)CO)c1cc([N+](=O)[O-])cc([N+](=O)[O-])c1N1CC1 (stereo unspecified)
252

Provide only the value of recorded Ratio for O=C(NCC(O)CO)c1cc(N2CC2)c([N+](=O)[O-])cc1[N+](=O)[O-] (stereo unspecified)
86.5
